# System name: P450 2A13 (Homo sapiens)
# Experimental details: Spectral binding titration with purified P450 2A13
# Condition description: human, pH 7.4
pKd: −log10 of the molar value.
Quantity kind: pKd

molecule="Cc1c2ccccc2c(C)c2c3c(ccc12)C(O)C(O)C=C3 (stereo not shown) [7,12-DMBA-3,4-diol]" recorded_measurement="< 4.70"

* * *

# System name: human P450 2A13 (Homo sapiens, UniProt Q16696)
# Condition description: 10 nM P450, 2.5 µM procarcinogen, means ± range of duplicate experiments
Quantity kind: activation of procarcinogens umu gene expression

compound="Cn1c(N)nc2ncc(-c3ccccc3)cc21 [PhIP]" system_name="human P450 2A13 (Homo sapiens, UniProt Q16696)" recorded_measurement="<10 units/min/nmol P450"
compound="Nc1ccc2cc3ccccc3cc2c1 [2-AA, 2-aminoanthracene]" system_name="human P450 2A13 (Homo sapiens, UniProt Q16696)" recorded_measurement="560 ± 40 units/min/nmol P450"
compound="Cn1c(N)nc2c3cccnc3ccc21 [IQ, 2-amino-3-methylimiidazo[4,5-f]quinoline]" system_name="human P450 2A13 (Homo sapiens, UniProt Q16696)" recorded_measurement="430 ± 40 units/min/nmol P450"
compound="OC1C=Cc2c(ccc3c2ccc2ccccc23)C1O (stereo not drawn) [chrysene-1,2-diol, 1,2-dihydroxy-1,2-dihydrochrysene]" system_name="human P450 2A13 (Homo sapiens, UniProt Q16696)" recorded_measurement="<10 units/min/nmol P450"
compound="OC1C=Cc2c(ccc3ccc4ccccc4c23)C1O (stereo not drawn) [B[c]Phe-3,4-diol]" system_name="human P450 2A13 (Homo sapiens, UniProt Q16696)" recorded_measurement="45 ± 8 units/min/nmol P450"
compound="CC(=O)Nc1ccc2c(c1)Cc1ccccc1-2 [2-AAF, 2-acetamidofluorene]" system_name="human P450 2A13 (Homo sapiens, UniProt Q16696)" recorded_measurement="<10 units/min/nmol P450"
compound="O=[N+]([O-])c1ccc2ccc3cccc4ccc1c2c34 [1-nitropyrene]" system_name="human P450 2A13 (Homo sapiens, UniProt Q16696)" recorded_measurement="<10 units/min/nmol P450"
compound="OC1C=Cc2c(cc3ccc4cccc5ccc2c3c45)C1O (racemic) [( ± )B[a]P-7,8-diol, 7,8-dihydroxy-7,8-dihydrobenzo[a]pyrene]" system_name="human P450 2A13 (Homo sapiens, UniProt Q16696)" recorded_measurement="136 ± 22 units/min/nmol P450"
compound="c1ccc2c(c1)ccc1ccc3ccccc3c12 [B[c]Phe, benzo[c]phenanthrene]" system_name="human P450 2A13 (Homo sapiens, UniProt Q16696)" recorded_measurement="55 ± 11 units/min/nmol P450"

* * *

# System name: P450 1B1 (Homo sapiens, UniProt Q16678, L432V)
# Sequence (Q16678 whole entry L432V): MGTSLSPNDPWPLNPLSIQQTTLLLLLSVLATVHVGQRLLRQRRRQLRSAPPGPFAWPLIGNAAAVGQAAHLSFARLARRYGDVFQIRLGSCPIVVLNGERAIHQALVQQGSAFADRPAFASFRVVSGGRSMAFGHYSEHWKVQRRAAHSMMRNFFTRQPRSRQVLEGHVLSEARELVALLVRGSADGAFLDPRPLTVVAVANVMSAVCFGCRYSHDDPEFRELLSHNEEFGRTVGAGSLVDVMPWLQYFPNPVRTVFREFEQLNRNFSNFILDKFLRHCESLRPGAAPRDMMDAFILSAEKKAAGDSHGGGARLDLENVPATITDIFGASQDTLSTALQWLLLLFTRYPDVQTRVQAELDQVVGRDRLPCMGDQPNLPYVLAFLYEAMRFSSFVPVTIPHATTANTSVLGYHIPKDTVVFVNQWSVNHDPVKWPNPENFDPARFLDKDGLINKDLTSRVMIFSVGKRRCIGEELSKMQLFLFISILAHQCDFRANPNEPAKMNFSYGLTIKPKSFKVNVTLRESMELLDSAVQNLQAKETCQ
# Experimental details: Spectral binding titration with purified P450 1B1
# Condition description: human, pH 7.4
Quantity kind: Kd

compound="Cc1c2ccccc2c(C)c2c3c(ccc12)C(O)C(O)C=C3 (stereo not drawn)" system_name="P450 1B1 (Homo sapiens, UniProt Q16678, L432V)" recorded_measurement="> 20 µM"
compound=O=[N+]([O-])c1ccc2ccc3cccc4ccc1c2c34 system_name="P450 1B1 (Homo sapiens, UniProt Q16678, L432V)" recorded_measurement="1.4 µM"
compound="OC1C=Cc2c(ccc3cc4ccccc4cc23)C1O (stereo not drawn) [B[a]A-trans-3,4-diol]" system_name="P450 1B1 (Homo sapiens, UniProt Q16678, L432V)" recorded_measurement="> 20 µM"
